- Test protocol: qHTS Assay for Rab9 Promoter Activators; further: nearly all actives have a fitted effect of over 60% in size
- Test context: Huh7 Rab9 promoter-luciferase reporter, luminescence, 24 h; series mostly up to 9.22 µM
Out of some 320,000 compounds screened, about 9,100 (2.8%) were called active. Roughly 3% stayed inconclusive and do not appear here. The call rests on the fitted dose curve; in most records, active means well fitted activation curve with a large enough effect; inconclusive means small, poorly fitted or top-dose-only effect; inactive means no such curve, though single readings can be large or run the other way. Many of the other results were omitted from the sample, so actives are more common in it than they were.
Your response should consist of one outcome taken from TRUE = active, FALSE = inactive

Returns: the outcome recorded for COc1ccc(Oc2c(Cl)cnn(-c3ccccc3)c2=O)cc1 in this assay. FALSE

Next:
Test call, this molecule: Cc1cccc(-n2ncc3c(N4CCc5ccccc54)ncnc32)c1 TRUE

Please indicate how the test categorized Cc1cccc(-n2ncc(Cl)c(Cl)c2=O)c1 . FALSE

GET /call?item= CN(Cc1ccccc1)C(=O)COc1ccccc1 returns the recorded outcome of this test. TRUE

What classification did CCOC(=O)c1cn[nH]c1NC(=S)Nc1ccccc1 end up with in this test? TRUE

Which result was noted for this molecule in the test: CN(Cc1ccc(F)cc1)C(=O)COc1ccc2ccccc2c1 FALSE

// outcome(item) with item = C=CCC(NC(=O)Cc1ccccc1)C(=O)NCCC (configuration not stated) FALSE

Per the records of this test, what outcome belongs to Cc1ccc2c(c1)c1ncnc(N3CCc4ccccc4C3)c1n2C ? FALSE

I'd appreciate the recorded outcome for CCN(CC(=O)NCc1ccc(Cl)cc1)C(=O)c1c(C)noc1C from this test. FALSE

Per the assay record, what outcome was assigned to Cc1cc(O)cc(O)c1C(=O)Cc1cnn(-c2ccccc2)c1 ? FALSE

Give the logged outcome of this assay for the following molecule: Cc1nc2cc(NC(=O)Nc3cccc(F)c3)ccc2n1C TRUE

Per the records of this test, what outcome belongs to Cc1nc2cc(NC(=O)NC3CC3)ccc2n1C ? FALSE

The origin of these recorded values is PubChem BioAssay AID485297.
